Could you please report measured melting point for the items listed next?

c1ccc2[nH]c(-c3ccncc3)cc2c1
208 to 210 °C
ClCc1csc(-c2ccco2)n1
76 to 78 °C
Nc1ccc(F)c(-n2nnnc2C2CC2)c1
93 to 95 °C
O=[N+]([O-])c1ccc(-c2noc(Cl)n2)cc1
118 to 120 °C
CCN(C)C(=O)c1cccc(C(=O)O)c1
102 to 104 °C

I need melting point for every entry listed below, if you could help.
1. CC(C)(C)OC(=O)N1CCN(c2ncccc2C#N)CC1
2. COC(=O)C(NC(c1ccccc1)(c1ccccc1)c1ccccc1)C(C)O (configuration not stated)
3. CCCCc1ccc(NS(=O)(=O)c2ccc(C)c(C(=O)O)c2)cc1
4. O=C(Nc1ccc(S(=O)(=O)Cl)cc1[N+](=O)[O-])C(F)(F)F
5. Cc1n[nH]c(C)c1NC(=O)CCl
6. CCc1ccc(CC)c(-c2csc(N)n2)c1
7. O=[N+]([O-])c1ccc(O)nc1Cl

["65 to 67 °C", "115 to 117 °C", "192 to 194 °C", "91 to 93 °C", "160 to 162 °C", "66 to 68 °C", "199 to 201 °C"]

* * *

ENDPOINT LABEL: melting point

Some entries whose results are on file:
Clc1ccc(-c2cc(CBr)on2)cc1
116 to 118 °C
Cc1ccc(C)c(-n2ncc(N)c2C)c1
62 to 64 °C
CN(C)C(=O)N1CCC(C(=O)O)CC1
146 to 148 °C

I need melting point for every entry listed below, if you could help.
1. Cc1ccccc1NS(=O)(=O)c1ccc(C(=O)O)cc1
2. O=C(NCc1cccc(Cl)c1)c1ccc(F)cc1
3. CC(=O)CC(=O)N1CCOCC1
4. O=C(O)CNC(=O)c1ccccc1C(F)(F)F
5. CSCCC(C(=O)O)N1C(=O)C2CCCCC2C1=O (stereo not given)
6. Nc1cccc(-c2n[nH]c3c2CCC3)c1

256 to 258 °C
59 to 61 °C
68 to 70 °C
152 to 154 °C
268 to 270 °C
168 to 170 °C

I need melting point for every entry listed below, if you could help.
1. CC(C)Nc1nnc(S)s1
2. COC(=O)c1cc([N+](=O)[O-])ccc1S(=O)(=O)Cl
3. NS(=O)(=O)c1c(Cl)cccc1C(F)(F)F
4. CC(C(=O)O)c1ccc(Cl)c(Cl)c1 (stereo not given)
5. Nc1cc([N+](=O)[O-])ccc1OC(F)F

["194 to 196 °C", "109 to 111 °C", "155 to 157 °C", "39 to 41 °C", "75 to 77 °C"]

I need melting point for every entry listed below, if you could help.
1. O=C(O)c1cc2c(s1)-c1ccccc1CC2
2. NS(=O)(=O)c1ccc2c(c1)oc(=O)n2CC(=O)O
3. Cc1cc(C(=O)CCl)c(C)n1-c1ccc(Br)cc1
4. Cc1ccccc1-n1nnnc1S
5. COc1cccc(Nc2ccccc2C(=O)O)c1
6. ClCc1nnc(-c2cc3c(s2)CCCC3)o1

["212 to 214 °C", "168 to 170 °C", "82 to 84 °C", "65 to 67 °C", "135 to 137 °C", "107 to 109 °C"]

I need melting point for every entry listed below, if you could help.
1. O=C(O)C1(c2ccccc2)CCC1
2. CC(C)(C)OC(=O)N1CCN(c2ccc(N)nc2)CC1

1. 105 to 107 °C
2. 131 to 133 °C

I need melting point for every entry listed below, if you could help.
1. Nc1nc(-c2ccc(N3CCCC3=O)cc2)cs1
2. CN(C)S(=O)(=O)c1cccc(-c2nnc(S)n2N)c1
3. O=C(Nc1ccccn1)c1ccc(O)cc1
4. Nc1ccc(Cl)c(C(=O)Nc2ccccc2)c1
5. O=C(CCl)c1ccc(F)c(F)c1
6. N#Cc1ccc(Oc2cccc([N+](=O)[O-])c2)cc1

1: 283 to 285 °C; 2: 200 to 202 °C; 3: 176 to 178 °C; 4: 115 to 117 °C; 5: 37 to 39 °C; 6: 124 to 126 °C

I need melting point for every entry listed below, if you could help.
1. CSc1nc(C)cc(C(=O)O)n1
2. CCc1cccc2c(C=O)c[nH]c12
3. O=C(CCc1ccccc1)c1ccccc1O
4. CC(=O)c1c[nH]c2cc(Br)ccc12

152 to 154 °C
99 to 101 °C
36 to 37 °C
239 to 241 °C

I need melting point for every entry listed below, if you could help.
1. CCOc1cc(C=O)ccc1OCc1ccc(C(C)(C)C)cc1
2. CCc1ccc(S(C)(=O)=O)cc1C(=O)O
3. Cc1ccc2c(C)cc(Cl)nc2c1
4. O=C(NC(C(=O)O)c1ccccc1)c1ccccc1 (stereo not given)

1. 113 to 115 °C
2. 151 to 153 °C
3. 49 to 51 °C
4. 198 to 200 °C

I need melting point for every entry listed below, if you could help.
1. Oc1ccc(OCC2CC2)cc1
2. COc1ccc(C=CC(=O)O)cc1S(=O)(=O)N1CCCCC1
3. COC(=O)Cc1ccccc1O
4. O=C1c2ccccc2S(=O)(=O)N1CCl
5. Cc1ccc(Br)cc1N1CCCS1(=O)=O

54 to 56 °C
219 to 221 °C
69 to 71 °C
145 to 147 °C
144 to 146 °C

* * *

ENDPOINT LABEL: melting point

Some entries whose results are on file:
O=c1cnc2ccccc2n1CCS(=O)(=O)F
145 to 147 °C
NS(=O)(=O)c1cc(F)ccc1Br
170 to 172 °C
NCc1ccc(-c2ccncc2)cc1
64 to 66 °C
Cc1nn(C2CCOC2)cc1C(=O)O (configuration not stated)
163 to 165 °C
O=C(O)C(c1ccccc1)N1CCc2ccccc21 (configuration not stated)
181 to 183 °C
O=C(O)C1CSC2(c3ccc(F)cc3)CCC(=O)N12 (configuration not stated)
202 to 204 °C
CNc1ccnc(C(N)=O)c1
157 to 159 °C
O=C(O)c1ccc(-n2cncn2)c([N+](=O)[O-])c1
274 to 276 °C
CCOC(=O)c1c(C)oc2nc(CCl)[nH]c(=O)c12
197 to 199 °C
O=c1[nH]c(CCl)nc2c1cnn2-c1ccccc1
259 to 261 °C

I need melting point for every entry listed below, if you could help.
1. Fc1cccc(NC2CCOCC2)c1
2. Cc1cccc([N+](=O)[O-])c1S(=O)(=O)Cl
3. CCOC(=O)Cc1nn[nH]n1
4. CC(=O)Nc1ccc(NC(=O)CC#N)cc1
5. COC(=O)c1cc(Cl)c(NC(=O)OCC(F)(F)F)cc1OC
6. O=C(Nc1cccc(O)c1)c1ccsc1
7. NC(=O)Nc1ccccc1-c1ccccc1
8. O=C(O)CCc1nnc(-c2ccccc2)o1

1: 70 to 72 °C; 2: 91 to 93 °C; 3: 120 to 127 °C; 4: 305 to 307 °C; 5: 100 to 102 °C; 6: 165 to 167 °C; 7: 155 to 157 °C; 8: 144 to 146 °C

I need melting point for every entry listed below, if you could help.
1. SC1=Nc2ccccc2CS1
2. O=C(O)C1CCN1Cc1ccccc1 (configuration not stated)
3. O=C(O)c1occc1-c1ccccc1
4. Cc1cc(C(=O)CCl)c(C)n1-c1ccc(Cl)c(C(F)(F)F)c1
5. Cc1ccccc1C(=O)CC#N
6. N#Cc1ccc(F)cc1N=C=O
7. CC(C)CNC(=O)C(C)Nc1cccc(Br)c1 (configuration not stated)
8. CCc1c(C(C)=O)oc2ccccc12

1. 149 to 151 °C
2. 176 to 178 °C
3. 142 to 144 °C
4. 139 to 141 °C
5. 84 to 86 °C
6. 36 to 38 °C
7. 92 to 94 °C
8. 33 to 35 °C

# query: melting point of entry "O=C(O)c1ccc(C=C2NC(=S)N(c3ccc(F)cc3)C2=O)cc1"
349 to 351 °C

* * *

ENDPOINT LABEL: melting point

Nc1cc(C2CC2)no1
52 to 54 °C
Nc1cc(Cl)cc(C(=O)O)c1F
196 to 198 °C
COc1cc(CCl)ccc1OCc1cccc(C#N)c1
95 to 97 °C
Cc1ccc(C)c(N2C(=O)C=CC2=O)c1
79 to 81 °C
Cc1n[nH]c(C)c1S(=O)(=O)N1CCC(=O)CC1
191 to 193 °C

I need melting point for every entry listed below, if you could help.
1. O=C(O)c1ccc(-c2cccc(OC(F)(F)F)c2)s1
2. Cc1ccc(S(N)(=O)=O)cc1C

1: 149 to 151 °C; 2: 117 to 119 °C
